Ref: patent US20230277698A1

# System: LNCaP tumor-bearing CB17-SCID mice
# assay info: Biodistribution studies 24 h p.i.
# Type: in vivo
# experimental conditions: 177Lu-labelled, mean±SD, n=4-5
result type: biodistribution: adrenals (% ID/g)
Answers are plain numbers, in % ID/g.

* CC(C)(C)[Si](O)(c1ccc(C(=O)N[C@H](CCC(=O)NC[C@@H](NC(=O)CC[C@@H](C(=O)O)N2CCN(CC(=O)O)CCN(CC(=O)O)CCN(CC(=O)O)CC2)C(=O)NCCCCCC(=O)NCCC[C@@H](NC(=O)CC[C@H](NC(=O)N[C@@H](CCC(=O)O)C(=O)O)C(=O)O)C(=O)O)C(=O)O)cc1)C(C)(C)C | 0.12
* O=C(O)CC[C@H](NC(=O)N[C@@H](CCCCNC(=O)[C@H](Cc1ccc2ccccc2c1)NC(=O)[C@H]1CC[C@H](CNC(=O)CN2CCN(CC(=O)O)CCN(CC(=O)O)CCN(CC(=O)O)CC2)CC1)C(=O)O)C(=O)O [PSMA-617, reference compound] | 0.13

Okay, now this compound:
Recorded biodistribution: adrenals for CC(C)(C)[Si](F)(c1ccc(C(=O)NC[C@@H](NC(=O)CN2CCN(CC(=O)O)CCN(CC(=O)O)CCN(CC(=O)O)CC2)C(=O)N[C@H](CCCCNC(=O)CCC(=O)NCCC[C@@H](NC(=O)CC[C@H](NC(=O)N[C@@H](CCC(=O)O)C(=O)O)C(=O)O)C(=O)O)C(=O)O)cc1)C(C)(C)C [rhPSMA-10, reference compound] , please?
0.09

* * *

# Tested on: LNCaP tumor-bearing CB17-SCID mice
# assay info: Biodistribution studies 24 h p.i.
# Assay type: in vivo
# experimental conditions: 177Lu-labelled, mean±SD, n=4-5
result type: biodistribution: pancreas (% ID/g)
Answers are plain numbers, in % ID/g.

* CC(C)(C)[Si](O)(c1ccc(C(=O)N[C@H](CCC(=O)NC[C@@H](NC(=O)CC[C@@H](C(=O)O)N2CCN(CC(=O)O)CCN(CC(=O)O)CCN(CC(=O)O)CC2)C(=O)NCCCCCC(=O)NCCC[C@@H](NC(=O)CC[C@H](NC(=O)N[C@@H](CCC(=O)O)C(=O)O)C(=O)O)C(=O)O)C(=O)O)cc1)C(C)(C)C | 0.01
* CC(C)(C)[Si](F)(c1ccc(C(=O)NC[C@@H](NC(=O)CN2CCN(CC(=O)O)CCN(CC(=O)O)CCN(CC(=O)O)CC2)C(=O)N[C@H](CCCCNC(=O)CCC(=O)NCCC[C@@H](NC(=O)CC[C@H](NC(=O)N[C@@H](CCC(=O)O)C(=O)O)C(=O)O)C(=O)O)C(=O)O)cc1)C(C)(C)C [rhPSMA-10, reference compound] | 0.02
* O=C(O)CC[C@H](NC(=O)N[C@@H](CCCCNC(=O)[C@H](Cc1ccc2ccccc2c1)NC(=O)[C@H]1CC[C@H](CNC(=O)CN2CCN(CC(=O)O)CCN(CC(=O)O)CCN(CC(=O)O)CC2)CC1)C(=O)O)C(=O)O [PSMA-617, reference compound] | 0.01
* O=C(O)CC[C@H](NC(=O)N[C@@H](CCCCNC(=O)CCCCCCC(=O)NCCCC[C@@H](NC(=O)[C@@H](Cc1ccccc1)NC(=O)[C@@H](Cc1ccc(O)c(I)c1)NC(=O)CCC(C(=O)O)N1CCN(CC(=O)O)CCN(CC(=O)O)CCN(CC(=O)O)CC1)C(=O)O)C(=O)O)C(=O)O (some centres unmarked) [PSMA I&T, reference compound] | 0.05
* CC(C)(C)[Si](F)(c1ccc(C(=O)NC[C@@H](NC(=O)CC[C@@H](C(=O)O)N2CCN(CC(=O)O)CCN(CC(=O)O)CCN(CC(=O)O)CC2)C(=O)N[C@H](CCCCNC(=O)CCC(=O)NCCC[C@@H](NC(=O)CC[C@H](NC(=O)N[C@@H](CCC(=O)O)C(=O)O)C(=O)O)C(=O)O)C(=O)O)cc1)C(C)(C)C [rhPSMA-7.3, reference compound] | 0.02

Could I get biodistribution: pancreas for every one of these entries?
1. CC(C)(C)[Si](O)(c1ccc(C(=O)NC[C@@H](NC(=O)CC[C@@H](C(=O)O)N2CCN(CC(=O)O)CCN(CC(=O)O)CCN(CC(=O)O)CC2)C(=O)N[C@H](CO)C(=O)NCCC(=O)NCCC(=O)NCCC[C@@H](NC(=O)CC[C@H](NC(=O)N[C@@H](CCC(=O)O)C(=O)O)C(=O)O)C(=O)O)cc1)C(C)(C)C
2. CC(C)(C)[Si](O)(c1ccc(C(=O)NC[C@@H](NC(=O)CC[C@@H](C(=O)O)N2CCN(CC(=O)O)CCN(CC(=O)O)CCN(CC(=O)O)CC2)C(=O)N[C@H](CCCCNC(=O)CCC(=O)NCCC[C@@H](NC(=O)CC[C@H](NC(=O)N[C@@H](CCC(=O)O)C(=O)O)C(=O)O)C(=O)O)C(=O)O)cc1)C(C)(C)C
3. CC(C)(C)[Si](O)(c1ccc(C(=O)NC[C@@H](NC(=O)CC[C@@H](C(=O)O)N2CCN(CC(=O)O)CCN(CC(=O)O)CCN(CC(=O)O)CC2)C(=O)NCC(=O)N[C@@H](CCCCNC(=O)CCC(=O)NCCC[C@@H](NC(=O)CC[C@H](NC(=O)N[C@@H](CCC(=O)O)C(=O)O)C(=O)O)C(=O)O)C(=O)O)cc1)C(C)(C)C

1: 0.01; 2: 0.01; 3: 0.01

* * *

# system name: PSMA (Homo sapiens)
# Construct: PSMA-positive LNCAP cells (300265; Cell Lines Service, Eppelheim, Germany)
# Sequence (Q04609 whole entry): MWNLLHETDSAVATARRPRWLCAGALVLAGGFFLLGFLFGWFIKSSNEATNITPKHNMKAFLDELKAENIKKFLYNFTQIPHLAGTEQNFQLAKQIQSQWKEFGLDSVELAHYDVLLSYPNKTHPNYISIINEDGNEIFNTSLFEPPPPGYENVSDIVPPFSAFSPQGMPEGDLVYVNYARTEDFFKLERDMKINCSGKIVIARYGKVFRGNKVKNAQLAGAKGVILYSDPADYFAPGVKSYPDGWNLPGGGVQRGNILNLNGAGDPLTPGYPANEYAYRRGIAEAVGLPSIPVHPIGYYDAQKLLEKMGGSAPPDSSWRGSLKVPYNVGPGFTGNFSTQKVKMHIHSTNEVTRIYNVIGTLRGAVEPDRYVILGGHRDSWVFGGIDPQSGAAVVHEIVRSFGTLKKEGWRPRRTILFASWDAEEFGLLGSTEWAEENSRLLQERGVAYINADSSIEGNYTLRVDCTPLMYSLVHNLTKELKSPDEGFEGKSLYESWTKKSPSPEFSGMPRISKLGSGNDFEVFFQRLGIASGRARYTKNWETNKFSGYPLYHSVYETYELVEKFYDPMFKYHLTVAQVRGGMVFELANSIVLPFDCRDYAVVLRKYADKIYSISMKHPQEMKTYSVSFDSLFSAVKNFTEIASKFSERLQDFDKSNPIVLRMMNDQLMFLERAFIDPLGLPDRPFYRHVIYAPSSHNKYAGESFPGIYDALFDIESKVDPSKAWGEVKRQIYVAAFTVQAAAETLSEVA
# assay info: PSMA affinity (IC50), competition with ([125I]I-BA)KuE on LNCaP cells
# experimental conditions: natLu complexes; LNCaP cells 150000 cells/well, ([125I]I-BA)KuE c=0.2 nM, 1 h, 4 °C, HBSS+1% BSA; mean±SD, n=3; read-out: IC50 (binding affinity to PSMA)
pIC50: −log10 of the molar value.
Rule: pIC50 of 8 or more gives label 1; anything lower gives label 0.

Answered examples (2):
- O=C(O)CC[C@H](NC(=O)N[C@@H](CCCCNC(=O)[C@H](Cc1ccc2ccccc2c1)NC(=O)[C@H]1CC[C@H](CNC(=O)CN2CCN(CC(=O)O)CCN(CC(=O)O)CCN(CC(=O)O)CC2)CC1)C(=O)O)C(=O)O [PSMA-617, reference compound]: label 1
- CC(C)(C)[Si](F)(c1ccc(C(=O)NC[C@@H](NC(=O)CN2CCN(CC(=O)O)CCN(CC(=O)O)CCN(CC(=O)O)CC2)C(=O)N[C@H](CCCCNC(=O)CCC(=O)NCCC[C@@H](NC(=O)CC[C@H](NC(=O)N[C@@H](CCC(=O)O)C(=O)O)C(=O)O)C(=O)O)C(=O)O)cc1)C(C)(C)C [rhPSMA-10, reference compound]: label 1

Read the next record carefully.
Could you verify whether the entry CC(C)(C)[Si](O)(c1ccc(C[N+](C)(C)CC(=O)NCCC[C@@H](NC(=O)CC[C@@H](C(=O)O)N2CCN(CC(=O)O)CCN(CC(=O)O)CCN(CC(=O)O)CC2)C(=O)NCCCCCC(=O)NCCC[C@@H](NC(=O)CC[C@H](NC(=O)N[C@@H](CCC(=O)O)C(=O)O)C(=O)O)C(=O)O)cc1)C(C)(C)C shows pIC50 of no less than 8?
label 0

* * *

Hi there, I'd appreciate the recorded biodistribution: spleen for every entry that follows.
# Tested on: LNCaP tumor-bearing CB17-SCID mice
# assay info: Biodistribution studies 24 h p.i.
# Type: in vivo
# experimental conditions: 177Lu-labelled, mean±SD, n=4-5
Enter the number, and then the unit.

• CC(C)(C)[Si](O)(c1ccc(C(=O)NC[C@@H](NC(=O)CC[C@@H](C(=O)O)N2CCN(CC(=O)O)CCN(CC(=O)O)CCN(CC(=O)O)CC2)C(=O)N[C@H](CO)C(=O)NCCC(=O)NCCC(=O)NCCC[C@@H](NC(=O)CC[C@H](NC(=O)N[C@@H](CCC(=O)O)C(=O)O)C(=O)O)C(=O)O)cc1)C(C)(C)C = 0.40 ± 0.10 % ID/g

Provide reported biodistribution: spleen for each item, in the same order as listed.
1. CC(C)(C)[Si](F)(c1ccc(C(=O)NC[C@@H](NC(=O)CC[C@@H](C(=O)O)N2CCN(CC(=O)O)CCN(CC(=O)O)CCN(CC(=O)O)CC2)C(=O)N[C@H](CCCCNC(=O)CCC(=O)NCCC[C@@H](NC(=O)CC[C@H](NC(=O)N[C@@H](CCC(=O)O)C(=O)O)C(=O)O)C(=O)O)C(=O)O)cc1)C(C)(C)C [rhPSMA-7.3, reference compound]
2. CC(C)(C)[Si](O)(c1ccc(C(=O)N[C@H](CCC(=O)NC[C@@H](NC(=O)CC[C@@H](C(=O)O)N2CCN(CC(=O)O)CCN(CC(=O)O)CCN(CC(=O)O)CC2)C(=O)NCCCCCC(=O)NCCC[C@@H](NC(=O)CC[C@H](NC(=O)N[C@@H](CCC(=O)O)C(=O)O)C(=O)O)C(=O)O)C(=O)O)cc1)C(C)(C)C

["0.51 ± 0.22 % ID/g", "0.31 ± 0.10 % ID/g"]
